tested on: MDA-MB-231 breast; test: NCI tumour cell line growth inhibition, 48 h
Reported GI50 is given for each of the following compounds.

Documented GI50 of CCOc1cccnc1/C=N/NC(N)=S : 3.27 µM

// GI50 lookup, compound = COC1C(CO)OC(n2c3ccccc3c3c4c(c5c6ccccc6[nH]c5c32)C(=O)NC4=O)C(O)C1OC(=O)C(N)CCCCN (stereo unspecified) , result: 0.985 µM

// GI50 value for C#Cc1cccc(Nc2ncnc3ccc(-c4cncc(NS(C)(=O)=O)c4)cc23)c1 : 2.2 µM

According to the records, this compound C#Cc1ccc(-n2c(/C=C/c3cc(OC)c(OC)c(OC)c3)nc3ncccc3c2=O)cc1 displays GI50 of 5.53 µM

Memo: C=C(CC1(CC(=C)c2ccc(C(=O)O)cc2)C(=O)N(C)C(=O)N(C)C1=O)c1ccc(C(=O)O)cc1 , reported GI50: > 100 µM

GI50 reading for CN(C)c1ccc(Sc2ccc3nc(N)nc(N)c3c2)cc1 : 2.23 µM

====

For reference, GI50 measured on NCI-H460 lung:

Reference set, count: 5
COMPOUND: O=C(CN=Cc1cccs1)CSC(c1ccccc1)c1ccccc1
VALUE_KIND: GI50
REPORTED_RESULT: 24.8 µM
--
COMPOUND: Cn1c(COC(=O)NCCN2CCOCC2)nc2c(N3CCOCC3)nc(-c3ccccc3)nc21
VALUE_KIND: GI50
REPORTED_RESULT: 1.25 µM
--
COMPOUND: C=C(C)[C@]12CC(C)C34OC(/C=C\C=C\CCCCCCCCC)(O[C@@H]1[C@@H]3[C@@H]1O[C@]1(CO)[C@@H](O)[C@]1(O)C(=O)C(C)=C[C@@H]41)O2 (stereo partly drawn)
VALUE_KIND: GI50
REPORTED_RESULT: < 0.0001 µM
--
COMPOUND: COc1cc(C2c3cc4c(cc3[C@@H](Nc3cccc(O)c3)C3COC(=O)[C@H]23)OCO4)cc(OC)c1O (stereo partly drawn)
VALUE_KIND: GI50
REPORTED_RESULT: 0.145 µM
--
COMPOUND: COC(=O)C1=C(O)C(C(=O)OC)[C@@]2(O)[C@@H](C(=O)OC)C(c3ccc(OC(=O)C(CC(C)C)NC(C)=O)cc3)C[C@@H]1[C@@H]2C(=O)OC (stereo partly drawn)
VALUE_KIND: GI50
REPORTED_RESULT: 41.6 µM

Kindly review the next compound as well.
Field GI50 (NCI-H460 lung), entry COc1cc(C(=O)/C=C/c2c(C(F)(F)F)nc3sccn23)cc(OC)c1OC : 1.65 µM

====

test system: K-562 leukemia; assay: NCI tumour cell line growth inhibition, 48 h
The entries below come with measured TGI values attached.

Field: example entries. Status: answers known.
COMPOUND: CC(=O)Nc1ccc(-n2cnc3cc(-c4ccc(OCCN5CCCCC5)cc4)ccc32)cc1
REPORTED_RESULT: > 33.3 µM

COMPOUND: Cc1ns/c(=N\C(=S)N(C)C)n1C
REPORTED_RESULT: > 100 µM

COMPOUND: Cc1[nH]c(=O)nc(N/N=C/c2ccc(O)cc2)c1C(=O)Nc1ccc(Cl)cc1
REPORTED_RESULT: > 100 µM

COMPOUND: Cc1ccc(C2=Nn3c(nc4sc(-c5ccccc5)cc4c3=O)SC2)cc1
REPORTED_RESULT: > 100 µM

COMPOUND: COC(=O)C1=C(O)C(C(=O)OC)[C@@]2(O)[C@@H](C(=O)OC)C(c3ccc(OC(=O)C(CC(C)C)NC(C)=O)cc3)C[C@@H]1[C@@H]2C(=O)OC (some centres not stated)
REPORTED_RESULT: > 100 µM

Just so you know, measured TGI for CCN(CC)CCOc1ccc(C2=C(c3ccccc3)CCc3cc(OC)ccc32)cc1 came out at 15.5 µM

Field TGI (entry CCCCCCCCCCCCCCCCCC1=NC(C)(C)CN1CCO ) reads 3.35 µM

Reported TGI for COC(=O)C(Cc1ccccc1)NC(=O)CCCNC(=O)OCc1ccccc1 (configuration not stated) was > 100 µM

Value of measured TGI for the entry CCOc1cccnc1/C=N/NC(N)=S : > 100 µM

The measured TGI associated with O=c1c2cc(F)ccc2sc2c(NCCCN3CCCC3)nc3ccccc3c12 reads 4.86 µM

Record O=C1/C(=C/c2ccccc2)CN(C(=O)Oc2ccc([N+](=O)[O-])cc2)C/C1=C\c1ccccc1 , field TGI: 5.33 µM

Reported TGI of Clc1ncc(C(Cl)(Cl)Cl)nc1-c1ccccc1 : 12.4 µM

// TGI value for N#Cc1nnc2c3c(-c4ccc(Cl)cc4)c(C#N)c(=O)[nH]c3nn2c1N : > 41.6 µM
